# target_or_system: recombinant human MGAT2 (Homo sapiens (Human))
# Sequence (Q3SYC2 whole entry): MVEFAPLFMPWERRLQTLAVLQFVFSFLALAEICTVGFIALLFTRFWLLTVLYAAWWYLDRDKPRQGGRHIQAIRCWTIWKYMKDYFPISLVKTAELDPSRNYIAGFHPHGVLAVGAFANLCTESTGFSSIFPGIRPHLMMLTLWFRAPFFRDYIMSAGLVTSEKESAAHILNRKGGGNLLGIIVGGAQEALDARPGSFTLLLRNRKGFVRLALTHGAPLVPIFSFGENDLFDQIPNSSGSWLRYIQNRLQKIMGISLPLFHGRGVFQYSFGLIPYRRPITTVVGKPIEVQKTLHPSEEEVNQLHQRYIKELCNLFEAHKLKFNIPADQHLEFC
# method: Measurement of human MGAT2 inhibitory activity
# Type: biochemical
# assay_setup: read-out: IC50 (concentration exhibiting 50% enzyme inhibition), Table 53
Entries and their IC50
reported_property: IC50 (nM)

molecule="Cc1ccc(-n2nc3c(c2NC(=O)CS(C)(=O)=O)C(=O)N[C@@]2(CCc4cc(C5CC5)ccc42)C3)nn1 [II-302]" reported_property=IC50 obs_value=3.61
molecule="CCOc1ccc2c(c1)OCC[C@]21Cc2nn(-c3ccc(C)cn3)c(NC(=O)CS(C)(=O)=O)c2C(=O)N1 [II-145]" reported_property=IC50 obs_value=6.43
molecule="Cc1ccc(-n2nc3c(c2NC(=O)CS(C)(=N)=O)C(=O)N[C@@]2(CCc4cc(OCC(F)(F)F)ccc42)C3)nc1 (single isomer, unassigned) [II-276]" reported_property=IC50 obs_value=2.2
molecule="Cc1ccc(-n2nc3c(c2NC(=O)CS(C)(=O)=O)C(=O)N[C@](C)(c2ccc(Cl)cc2F)C3)nc1 [II-176]" reported_property=IC50 obs_value=8.32
molecule="N#Cc1ccc(-n2nc3c(c2C(=O)NCC(N)=O)C(=O)N[C@]2(CCc4cc(OCC(F)(F)F)ccc42)C3)nc1 [II-245]" reported_property=IC50 obs_value=11.3
molecule="N#Cc1ccc(-n2nc3c(c2C(=O)NC2CC(F)(F)C2)C(=O)N[C@@]2(CCc4cc(OCC(F)(F)F)ccc42)C3)nc1 [II-188]" reported_property=IC50 obs_value=5.01
molecule="CC(C)(C)c1cc(-n2nc3c(c2NC(=O)CS(C)(=O)=O)C(=O)N[C@@]2(CCOc4cc(OCC(F)(F)F)ccc42)C3)no1 [II-257]" reported_property=IC50 obs_value=0.409
